The values you see were collected from paper PMC10398685.

testDescription: Microsomal stability, mouse
Assay type: in vitro ADME
recordedConditions: pH 7.4, 0.5 mg/ml mouse microsomes, triplicates
Answer each item with its documented microsomal CLint at 5 µM.
Answers are plain numbers, in µL/min/mg.

Field: example entries. Status: answers known.
{"columns": ["compound", "measurementUnits", "valueReported"],
 "data": [
  ["CCN(C[C@H]1O[C@@H](n2cc(C#Cc3ccc(C(N)=O)cc3)c3c(N)ncnc32)[C@H](O)[C@@H]1O)S(=O)(=O)c1ccc(OC)c(C#N)c1 [Compound 12o]", "µL/min/mg", 19.2],
  ["CCN(C[C@H]1O[C@@H](n2cc(C#Cc3nc4ccccc4[nH]3)c3c(N)ncnc32)[C@H](O)[C@@H]1O)S(=O)(=O)c1ccc(OC)c(C#N)c1 [Compound 12a]", "µL/min/mg", 32.6],
  ["CCN(C[C@H]1O[C@@H](n2cc(C#Cc3ccc(N)nc3)c3c(N)ncnc32)[C@H](O)[C@@H]1O)S(=O)(=O)c1ccc(OC)c(C#N)c1 [Compound 12h]", "µL/min/mg", 37.8]
]}

Hi! Can you tell me microsomal CLint at 5 µM for each of these compounds?
1. CCN(C[C@H]1O[C@@H](n2cc(C#Cc3cccnc3)c3c(N)ncnc32)[C@H](O)[C@@H]1O)S(=O)(=O)c1ccc(OC)c(C#N)c1 [Compound 12l]
2. COc1ccc(S(=O)(=O)N(C)C[C@H]2O[C@@H](n3cc(C#Cc4cccnc4)c4c(N)ncnc43)[C@H](O)[C@@H]2O)cc1C#N [Compound 12s]

### Response
1: 40.9; 2: 30.5
